# study target: T1, HLA-B*44:02 (human)
# T1 construct: also called peptide-receptive MHC molecules
# protocol notes: UV-exchange b2m ELISA; exchange-yield grade
Task for the reader: assign each of the following binders its reported peptide exchange yield.

In: Consider the binder "LELPPILVY" and give its recorded peptide exchange yield.
Out: 10 to 20%

In: Using known records, supply peptide exchange yield for "FESHSTVSA"
Out: 10 to 20%

In: Answer with the recorded peptide exchange yield of "SDSQVRAF" only.
Out: 10 to 20%

In: State its peptide exchange yield for this binder: "NEAIMHQY"
Out: 20 to 50%

In: In one line, give reported peptide exchange yield of the entry "TEVSRTEL" .
Out: 20 to 50%

In: Retrieve peptide exchange yield measured for "AEQDPDELNKA" and print it.
Out: 20 to 50%

In: Tell me peptide exchange yield reported for "AEHFSMIRA"
Out: 20 to 50%

In: # return recorded peptide exchange yield for input "KEFLFNMY"
Out: 20 to 50%

In: Assign peptide exchange yield to the following record: "TEAVVTNEL"
Out: 20 to 50%

In: Look up and report measured peptide exchange yield for this entry: "HESSSHHDL"
Out: 20 to 50%

In: Output peptide exchange yield of "GEPATTVSL"
Out: 20 to 50%

In: Identify peptide exchange yield associated with the binder "KEAIREHQM"
Out: 20 to 50%

In: Supply peptide exchange yield value. Item: "REAGDEFEL"
Out: 20 to 50%

In: Please report peptide exchange yield for the following binder: "EDAALFKAW"
Out: 20 to 50%

In: Tell me peptide exchange yield reported for "AEHEGVSVL"
Out: 20 to 50%

In: Tell me measured peptide exchange yield for "AEFLLRIFL" please.
Out: 20 to 50%

In: Supply reported peptide exchange yield belonging to this binder: "SFEQVVNELF"
Out: 20 to 50%

In: Fill in peptide exchange yield for record "SEITRIEM"
Out: 20 to 50%

In: Let me know recorded peptide exchange yield for "AEIEPKADG" , thanks.
Out: 20 to 50%

In: Consider the binder "EEAQWVRKY" . State its measured peptide exchange yield.
Out: 20 to 50%

In: Indicate its recorded peptide exchange yield; the binder in question is IEALSGKIEL (also called lEALSGKIEL)
Out: 20 to 50%

In: // Input: "SEVPTGTTA" . Output its peptide exchange yield only.
Out: 20 to 50%

In: Identify measured peptide exchange yield corresponding to "RELANDELIL"
Out: 20 to 50%

In: Kindly indicate its recorded peptide exchange yield. Item: "REEFVSIDHL"
Out: 20 to 50%

In: Provide only the value of recorded peptide exchange yield for "REGDTVQLL"
Out: 20 to 50%

In: Supply peptide exchange yield value. Item: "TEFPLFSAA"
Out: 10 to 20%

In: Identify measured peptide exchange yield associated with "REGPEEPGL"
Out: 20 to 50%

In: Give peptide exchange yield for "AERQPGAASL"
Out: 20 to 50%

In: Supply recorded peptide exchange yield for "EDGRLVIEF" here.
Out: 10 to 20%

In: Tell us which peptide exchange yield value is on record for "GEGPKTSW"
Out: 20 to 50%

In: Entry "GEMEQKQL" needs its peptide exchange yield filled in; supply it.
Out: 20 to 50%

In: Read the entry "NEIWTHSY" and write its reported peptide exchange yield.
Out: 10 to 20%
